- targetOrTestSystem: UniProt:P15538
- Sequence (P15538 whole entry): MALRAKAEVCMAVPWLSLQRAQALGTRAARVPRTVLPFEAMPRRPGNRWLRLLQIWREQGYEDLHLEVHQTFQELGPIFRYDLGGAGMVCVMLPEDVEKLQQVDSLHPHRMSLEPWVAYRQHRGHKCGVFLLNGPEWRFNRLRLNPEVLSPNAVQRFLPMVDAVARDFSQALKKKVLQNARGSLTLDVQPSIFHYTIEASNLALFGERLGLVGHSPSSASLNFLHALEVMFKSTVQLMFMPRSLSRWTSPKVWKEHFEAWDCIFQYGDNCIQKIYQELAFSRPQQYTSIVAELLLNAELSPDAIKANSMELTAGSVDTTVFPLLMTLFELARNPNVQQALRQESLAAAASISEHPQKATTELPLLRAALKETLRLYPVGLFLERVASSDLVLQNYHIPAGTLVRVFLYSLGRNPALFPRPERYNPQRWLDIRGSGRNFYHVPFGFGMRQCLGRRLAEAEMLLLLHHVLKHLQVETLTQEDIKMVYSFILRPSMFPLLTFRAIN
- assaySummary: Inhibition of human CYP11B1 expressed in hamster V79MZ cells using [1,2-3H]11-deoxycorticosterone as substrate preincubated for 60 mins prior to substrate addition measured after 25 mins by HPLC analysis
Please respond with reported pIC50 for every item in the list.
One number for each entry, as −log10 of the molar value.

Consider the following illustrative entries.
smilesCode | experimentalReadout | measurement
c1ccc2c(-c3ccc(Cn4ccnc4)cn3)cccc2c1 | pIC50 | 7.38
c1csc(-c2ncccc2Cn2ccnc2)c1 | pIC50 | 7.80
Nc1ccc(-c2ccc(Cn3ccnc3)cn2)cc1 | pIC50 | 6.97
c1ccc2c(-c3ccc(Cn4ccnc4)cn3)csc2c1 | pIC50 | 7.40

Hey, can you go through the list below and give me pIC50 for every item?
1. Nc1cccc(-c2ccc(Cn3ccnc3)cn2)c1
2. Nc1ccccc1-c1ccc(Cn2ccnc2)cn1
3. Brc1ncccc1Cn1ccnc1
4. Oc1ccc(-c2ccc(Cn3ccnc3)cn2)cc1F

Response:
[6.96, 7.00, 7.21, 7.77]
